Test Method Notes: Brain permeability of rats (Kp-unbound)
Assay type: in vivo
Conditions: both sexes, rat, not told, po; SD rats, 10 mg/kg intragastrically, 0.5 h after administration; read-out: Kp-unbound (blood-brain permeability index)
Measure Name: Kp at 0.5 h

Here is how some compounds turned out for Kp at 0.5 h.
| Compound | Number |
| --- | --- |
| COCc1nnc(N2CC(n3cc(C)c4cc(F)ccc43)C2)n1-c1ccc(OC)nc1 | 0.295 |
| COc1ccc(-n2c(COC(F)F)nnc2N2CC(c3cccc4cc(F)ccc34)C2)cn1 | 0.175 |

A = COCc1nnc(N2CC(c3cccc4cc(F)ccc34)C2)n1-c1ccc(OC)nc1
B = COCc1nnc(N2CC(Oc3ccc(F)cc3Cl)C2)n1-c1ccc(OC)nc1 [reference compound]
Query block: Between A and B , which one shows the larger Kp at 0.5 h value? Response format: the label of the selected entry.
Result block: A
(A: 0.199, B: 0.064)

====

Target Or System: UniProt P30518
Sequence (P30518 whole entry): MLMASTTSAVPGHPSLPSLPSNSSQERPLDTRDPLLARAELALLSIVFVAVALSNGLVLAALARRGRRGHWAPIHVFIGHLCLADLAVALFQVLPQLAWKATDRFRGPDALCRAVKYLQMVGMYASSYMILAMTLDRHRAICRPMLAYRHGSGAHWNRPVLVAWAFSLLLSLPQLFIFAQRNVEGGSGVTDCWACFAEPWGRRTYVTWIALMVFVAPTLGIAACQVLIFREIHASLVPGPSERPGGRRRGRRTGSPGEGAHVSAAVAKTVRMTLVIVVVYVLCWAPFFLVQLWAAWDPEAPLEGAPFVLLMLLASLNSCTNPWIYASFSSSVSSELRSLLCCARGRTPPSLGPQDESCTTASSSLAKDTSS
Test Method Notes: Inhibition activity on human V2R (cAMP HTRF assay, HEK293/human V2R pool cells)
Conditions: vasopressin
Measure Name: IC50 (µM)

Here is how some compounds turned out for IC50.
| Compound | Measure Name | Number |
| --- | --- | --- |
| COCc1nnc(N2CC(C3CCOc4cc(F)ccc43)C2)n1-c1ccc(OC)nc1 (centres unmarked) [Example 21] | IC50 | 17.3 |
| CCOCc1nnc(N2CC(N3CCOc4cc(F)ccc43)C2)n1-c1ccc(OC)nc1 [Example 31] | IC50 | 5.8 |
| COCc1nnc(N2CC(N3CCc4cc(F)ccc43)C2)n1-c1ccc(OC)nc1 [Example 23] | IC50 | 52 |

a = COCc1nnc(N2CC(c3cccc4cc(F)ccc34)C2)n1-c1ccc(OC)nc1 [Example 2]
b = COCc1nnc(N2CC(c3csc4cc(F)ccc34)C2)n1-c1ccc(OC)nc1 [Example 9]
c = COCc1nnc(N2CC(n3cc(Cl)c4cc(F)ccc43)C2)n1-c1ccc(OC)nc1 [Example 10]
d = COCc1nnc(N2CC(N3CCOc4cc(F)ccc43)C2)n1-c1ccc(OC)nc1 [Example 24]
Query block: List items by IC50 in falling order. I'd appreciate it if you listed the labels in the requested order.
Result block: d, c, b, a
(d: 67.2 µM, c: 20.7 µM, b: 12.5 µM, a: 4.9 µM)

P = COc1ccc(-n2c(C)nnc2N2CC(N3CCCc4cc(F)ccc43)C2)cn1 [Example 29]
Q = COCc1nnc(N2CC(N3CCCc4cc(F)ccc43)C2)n1-c1ccc(OC)nc1 [Example 30]
R = COCc1nnc(N2CC(c3coc4cc(F)ccc34)C2)n1-c1ccc(OC)nc1 [Example 11]
S = COCc1nnc(N2CC(N3C(=O)COc4cc(F)ccc43)C2)n1-c1ccc(OC)nc1 [Example 18]
Query block: List items by IC50 in falling order. I'd appreciate it if you listed the labels in the requested order.
Result block: S, R, P, Q

P = COCc1nnc(N2CC(n3cc(C)c4cc(F)ccc43)C2)n1-c1ccc(OC)nc1 [Example 17]
Q = CCOCc1nnc(N2CC(N3CCCc4cc(F)ccc43)C2)n1-c1ccc(OC)nc1 [Example 26]
Query block: Lower value for measured IC50? Options: P , Q Response format: the label of the selected entry.
Result block: Q
(Q: 1.4 µM, P: 10.9 µM)
